System: Propionic Acidemia (PA) primary fibroblasts GM00371
Experimental details: Mitochondrial respiration, XFe96 Extracellular Flux Analyzer (OCR/ECAR), PA fibroblasts GM00371
Assay type: cell-based
Reported conditions: Homo sapiens, Fibroblast, assay condition D (1 mM glucose, 10% FBS), 10 μM, read-out: Increase in Spare Capacity AUC
Recorded activation at 10 µM, one value per entry.

Below, each entry is followed by its recorded activation at 10 µM result.
Test smiles | Target entity | Endpoint name | Observed measurement
COC(=O)CCC(=O)SCCNC(=O)CCNC(=O)[C@H](OC(=O)CN)C(C)(C)CO | Propionic Acidemia (PA) primary fibroblasts GM00371 | activation at 10 µM | ≥ 30%
CC(=O)NCC(=O)O[C@@H](C(=O)NCCC(=O)NCCSC(=O)CCC(=O)O)C(C)(C)CO | Propionic Acidemia (PA) primary fibroblasts GM00371 | activation at 10 µM | ≥ 30%
CC(C)(CO)[C@@H](O)C(=O)NCCC(=O)NCCSC(=O)CCC(=O)O | Propionic Acidemia (PA) primary fibroblasts GM00371 | activation at 10 µM | ≥ 10%
CC(C)(CO)[C@@H](OC(=O)CN)C(=O)NCCC(=O)NCCSC(=O)CCC(=O)O | Propionic Acidemia (PA) primary fibroblasts GM00371 | activation at 10 µM | ≥ 30%

Continue with the compound presented below.
Notebook: "COC(=O)CCC(=O)SCCNC(=O)CCNC(=O)[C@H](OC(=O)CNC(C)=O)C(C)(C)CO" , activation at 10 µM read as ≥ 30%

* * *

Experimental details: Treg differentiation assay
Format: cell-based
Reported conditions: human
Endpoint name: percent decrease in viable Treg cells at 5 days, 50 µM

response.value for "C/C=C/C(=O)SCCNC(=O)CCNC(=O)[C@H](O)C(C)(C)CO" (field: percent decrease in viable Treg cells at 5 days, 50 µM) = ≥ 30%

* * *

System: Coronary artery smooth muscle cells (CASM3C system)
Experimental details: BioMAP CASM3C system (IL-1β, TNFα, IFNγ)
Format: cell-based, human
Reported conditions: Homo sapiens, 24 h; 10 uM; read-out: % decrease in Thrombomodulin
We begin with a simple list: items and their reported inhibition at 10 µM.

Compound | Endpoint name | Observed measurement
CC(=O)SCCNC(=O)CCNC(=O)[C@H](O)C(C)(C)COC(=O)[C@H](C)N [Compound 502] | inhibition at 10 µM | ≥ 10%
COC(=O)CCC(=O)SCCNC(=O)CCNC(=O)[C@H](O)C(C)(C)COC(C)=O [Compound 138] | inhibition at 10 µM | ≥ 10%
COC(=O)CCC(=O)SCCNC(=O)CCNC(=O)[C@H](O)C(C)(C)COC(=O)OCC[N+](C)(C)C [Compound 117] | inhibition at 10 µM | ≥ 10%
COC(=O)CCC(=O)SCCNC(=O)CCNC(=O)[C@H](OC(=O)CNC(C)=O)C(C)(C)CO [Compound 1298] | inhibition at 10 µM | ≥ 20%
CCCCCCC(=O)SCCNC(=O)CCNC(=O)[C@H](O)C(C)(C)CO [Compound 372] | inhibition at 10 µM | ≥ 10%

Form field inhibition at 10 µM, entry CC(=O)OCCCC(=O)SCCNC(=O)CCNC(=O)[C@H](O)C(C)(C)CO [Compound 1305] : ≥ 20%

Record CC(C)(CO)[C@@H](O)C(=O)NCCC(=O)NCCSC(CC(=O)O)C(=O)OCC[N+](C)(C)C (some centres unmarked) [Compound 57] . Reported inhibition at 10 µM: ≥ 20%

Recorded result, COC(=O)CCC(=O)CC(=O)SCCNC(=O)CCNC(=O)[C@H](O)C(C)(C)COC(C)=O [Compound 141] , inhibition at 10 µM: ≥ 10%

* * *

Test system: HepG2 cells
Experimental details: MitoBiogenesis In-Cell ELISA (COX-I, SDH-A)
Format: cell-based
Reported conditions: Homo sapiens, 168 h, 10 uM, 7 days, read-out: % increase in Mitochondrial Biogenesis
Catalogue of activation at 10 µM values

Test smiles | Observed measurement
CC(C)C(=O)CC(=O)SCCNC(=O)CCNC(=O)[C@H](O)C(C)(C)CO | > 5%
COC(=O)C[C@H](N)C(=O)SCCNC(=O)CCNC(=O)[C@H](O)C(C)(C)CO | 10%

Record "CSCCNC(=O)CCNC(=O)[C@H](O)C(C)(C)CO" , field activation at 10 µM: > 5%

Quick note, activation at 10 µM for "COC(=O)CCC(=O)SCCNC(=O)CCNC(=O)[C@H](O)C(C)(C)COP(=O)(O)O" landed at > 5%

For record "C/C=C/C(=O)SCCNC(=O)CCNC(=O)[C@H](O)C(C)(C)CO" the listed activation at 10 µM is > 5%

Recorded result, "CC(C)(CO)[C@@H](OC(=O)CCC(=O)O)C(=O)NCCC(=O)NCCS" , activation at 10 µM: 5%

* * *

inhibition at 50 µM values, listed per item
Tested on: HepG2 cells
Experimental details: Mitochondrial membrane potential (MITO-ID MP detection Kit)
Type: cell-based
Reported conditions: Homo sapiens, 168 h, 50 uM, 7 days, read-out: % decrease in Mitochondrial Membrane Potential

Example entries begin here.
Compound | Target entity | Observed measurement
CC(O)C(C(=O)SCCNC(=O)CCNC(=O)[C@H](O)C(C)(C)CO)C(C)O (some centres unmarked) [Compound 1285] | HepG2 cells | > 30%
CCC(=O)C(C)C(=O)SCCNC(=O)CCNC(=O)[C@H](O)C(C)(C)CO (some centres unmarked) [Compound 1251] | HepG2 cells | > 30%
CC(C)(CO)[C@@H](O)C(=O)NCCC(=O)NCCSC(=O)CC(O)C(=O)O (some centres unmarked) [Compound 39] | HepG2 cells | > 50%
COC(=O)CCC(=O)SCCNC(=O)CCNC(=O)[C@H](O)C(C)(C)COP(=O)(O)O [Compound 62] | HepG2 cells | > 50%
CCC(C)C(=O)CC(=O)SCCNC(=O)CCNC(=O)[C@H](O)C(C)(C)CO (some centres unmarked) [Compound 1240] | HepG2 cells | > 50%

Value of measured inhibition at 50 µM for the entry COC(=O)/C=C/C(=O)SCCNC(=O)CCNC(=O)[C@H](O)C(C)(C)COP(=O)(O)O [Compound 73] : > 30%

Value of inhibition at 50 µM reported for the compound C/C=C/C(=O)SCCNC(=O)CCNC(=O)[C@H](O)C(C)(C)COP(=O)(O)O [Compound 82] is > 20%

Measured inhibition at 50 µM of COC(=O)CC[C@H](N)C(=O)SCCNC(=O)CCNC(=O)[C@H](O)C(C)(C)CO [Compound 411] : > 20%

* * *

Test system: Propionic Acidemia (PA) primary fibroblasts GM00371
Experimental details: Mitochondrial respiration, XFe96 Extracellular Flux Analyzer (OCR/ECAR), PA fibroblasts GM00371
Type: cell-based
Reported conditions: Homo sapiens, Fibroblast, assay condition C (10 mM glucose, 10% FBS), 50 μM, read-out: Increase in Maximal Respiratory Capacity AUC
Endpoint name: activation at 50 µM

For this compound ( "CCCCCCC(=O)SCCNC(=O)CCNC(=O)[C@H](O)C(C)(C)CO" ), measured activation at 50 µM is ≥ 10%

Lab note: measured activation at 50 µM of "CCC(=O)OCC(C)(C)[C@@H](O)C(=O)NCCC(=O)NCCSC(=O)CCC(=O)O" was ≥ 10%

Lab note: measured activation at 50 µM of "COC(=O)CCC(=O)CC(=O)SCCNC(=O)CCNC(=O)[C@H](O)C(C)(C)CO" was ≥ 10%

* * *

Tested on: Coronary artery smooth muscle cells (CASM3C system)
Experimental details: BioMAP CASM3C system (IL-1β, TNFα, IFNγ)
Type: cell-based, human
Reported conditions: Homo sapiens, 24 h; 10 uM; read-out: % decrease in Thrombomodulin
Endpoint name: inhibition at 10 µM

In plain terms, "COC(=O)CCC(=O)SCCNC(=O)CCNC(=O)[C@H](OC(=O)CN)C(C)(C)CO" has a documented inhibition at 10 µM of ≥ 20%

Entry COC(=O)CC(SCCNC(=O)CCNC(=O)[C@H](O)C(C)(C)COC(C)=O)C(=O)OC (stereo partly drawn) — recorded inhibition at 10 µM = ≥ 10%

inhibition at 10 µM reading for "COC(=O)CCC(=O)SCCNC(=O)CCNC(=O)[C@H](OC(C)=O)C(C)(C)CO" : ≥ 20%

* * *

Tested on: Subnormal activation of pyruvate dehydrogenase complex (PDH) primary fibroblasts GM01503 (GM1503A)
Experimental details: Total NAD+ + NADH and NAD+ (NAD/NADH-Glo), PDH fibroblasts GM01503
Format: cell-based
Reported conditions: Homo sapiens, Fibroblast, PDH GM1503A P10, assay condition A, 24h, read-out: Increase in Total NAD+ + NADH
Form field: activation at 10 µM (one value per entry).

Below, each entry is followed by its recorded activation at 10 µM result.
Compound | activation at 10 µM
CC(O)C(C(=O)SCCNC(=O)CCNC(=O)[C@H](O)C(C)(C)CO)C(C)O (stereo partly drawn) | ≥ 10%
CC(=O)OCC(C)(C)[C@@H](O)C(=O)NCCC(=O)NCCSC(=O)CC(=O)CCC(=O)O | ≥ 10%
CCC(=O)CC(=O)SCCNC(=O)CCNC(=O)[C@H](O)C(C)(C)CO | ≥ 10%

The value of activation at 10 µM measured for the compound "CC(=O)SCCNC(=O)CCNC(=O)[C@H](O)C(C)(C)COC(=O)CN" turned out to be ≥ 10%

activation at 10 µM reported for this compound "CC(=O)C(C(C)=O)C(=O)SCCNC(=O)CCNC(=O)[C@H](O)C(C)(C)CO" : ≥ 10%

What the record says about "CC(=O)OCC(C)(C)[C@@H](OC(C)=O)C(=O)NCCC(=O)NCCSC(C)=O" : activation at 10 µM is ≥ 10%
